experiment: NCI Yeast Anticancer Drug Screen. Data for the sgs1 mgt1 strain (AID 161);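 also: 0% = growth of cultures given vehicle only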; settings: S. cerevisiae sgs1 mgt1 strain, at 5.0 µM (retest, dose inferred, filed as 0.5)
The panel holds about 79,000 compounds, 15% with a hit somewhere; the sample as a whole holds those more often. Calls of active or inactive are those of the source. Rule as the data show it: active = growth inhibition above about 70%; inactive = the rest.
Possible outcomes: active, inactive

molecule=C/C(=N/Nc1ccccc1)C(=O)O qualitativelabel=inactive
molecule=CC[N+]1=C(/C=C\c2cc(C)c3cccnc3c2O)C(C)(C)c2ccccc21 qualitativelabel=inactive
molecule="CCC1CCC(CC)C1=O (centres undefined)" qualitativelabel=inactive
molecule="COC(O)C(=O)c1c2c(cc3c1CC1(Cc4cc5c(cc4C1)CCC5)C3)CCC2 (centres undefined)" qualitativelabel=active

====

test: NCI Yeast Anticancer Drug Screen. Data for the cln2 rad14 strain (AID 165);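 also: 0% = growth equal to vehicle treated cultures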; conditions: S. cerevisiae cln2 rad14 strain, at 50.0 µM (retest, dose inferred, filed as 5.0), hits give high values
This is part of a sample that, as a whole, favours compounds with a hit. Of some 79,000 tested, about 15% had one in any assay.
readoutName: growth inhibition (%)

molecule=CC(=O)Nc1ccc(C(=O)n2[nH]c(C)c(/C=C3\C(=O)C=Cc4ccccc43)c2=O)cc1 readoutname="growth inhibition" readingunit=% assayresult=99
molecule="CC(SCc1ccccc1)C(=O)O (configuration not stated)" readoutname="growth inhibition" readingunit=% assayresult=-1
molecule=Cc1cc(/C=C/c2cccc[n+]2C)c(C)n1-c1ccccc1 readoutname="growth inhibition" readingunit=% assayresult=85
molecule=Oc1ccc(/C=N/NC(=S)Nc2ccccc2)nc1 readoutname="growth inhibition" readingunit=% assayresult=42
molecule=O=C1C=CC2=Nc3ccccc3CCC2=C1 readoutname="growth inhibition" readingunit=% assayresult=86
molecule=COCCCNC(=O)SC readoutname="growth inhibition" readingunit=% assayresult=0
molecule=c1ccc(C[n+]2cccc(-c3cc4ccccc4[nH]3)c2)cc1 readoutname="growth inhibition" readingunit=% assayresult=-23

====

assay: NCI Yeast Anticancer Drug Screen. Data for the bub3 strain (AID 167); conditions: S. cerevisiae bub3 mutant strain, at 50.0 µM
Compounds without any hit were thinned out: in the full panel of roughly 79,000, 15% have a hit. Calls of active or inactive are those of the source. No stated cut-off is given here; in the data, active means growth inhibition above about 70%; inactive means the rest.
Possible outcomes: true (1) = active, false (0) = inactive

compound=CN(C)C(=O)SC1=C(c2c(Cl)cccc2Cl)C(=O)c2ccccc21 qualitativelabel="true (1)"
compound=N#CSCc1ccc(CSC#N)c(Cl)c1 qualitativelabel="false (0)"
compound=Cc1ccccc1N1CCN(c2c3c(nc4ccccc24)CCCCC3)CC1 qualitativelabel="true (1)"
compound=N#CC1=CN=C2C=CC=C3N=C(C(Cl)(Cl)Cl)N=C1N32 qualitativelabel="false (0)"
compound="CC(C)C(=O)OCC(C)(C)C1OCC(C)(C)C(C(C)C)O1 (configuration not stated)" qualitativelabel="false (0)"
compound=O=S(=O)(O)c1cc2ccccc2c(O)c1N=Nc1ccccc1 qualitativelabel="false (0)"
compound="CC(C)CCCCCCCCCCCCC(=O)NCC(=O)NC1C(C)OC(Nc2ncnc3nc[nH]c23)C(O)C1O (configuration not stated)" qualitativelabel="true (1)"
compound=Cn1cc(NC(=O)c2cc(NC(=O)CCCCCCCCC(=O)Nc3cc(C(=O)Nc4cc(C(=O)NCCC(N)N)n(C)c4)n(C)c3)cn2C)cc1C(=O)NCCC(=N)N qualitativelabel="true (1)"
compound="O=C1OC(c2ccccc2)CC1Cc1ccccc1 (configuration not stated)" qualitativelabel="false (0)"
compound=O=C(CNC(=O)OCc1ccccc1)Oc1ccc([N+](=O)[O-])cc1 qualitativelabel="false (0)"
compound="O=C(OCC1OC(c2nn[nH]n2)C(OC(=O)c2ccccc2)C1OC(=O)c1ccccc1)c1ccccc1 (configuration not stated)" qualitativelabel="false (0)"
compound=CSC(=S)NN=C1CCCCC1 qualitativelabel="true (1)"
compound=CC(C)N(CN1C(=O)N/C(=C/c2cccc(/C=C3/NC(=O)N(CN(C(C)C)C(C)C)C3=O)c2)C1=O)C(C)C qualitativelabel="false (0)"
compound=CCN(CC)Cc1cc(N=Nc2c(O)ccc3c(N=Nc4ccc(O)c(CN(CC)CC)c4)c(O)ccc23)ccc1O qualitativelabel="false (0)"
compound="NC(=O)/C(=N\\NC(=O)c1cc2ccccc2cc1O)C1C(=O)N(c2ccccc2)N=C1N (configuration not stated)" qualitativelabel="false (0)"
compound=CN(C)CCC(=O)/C=C/c1ccccc1 qualitativelabel="false (0)"
compound=Cc1c2ccncc2cc2c3ccccc3n(C)c12 qualitativelabel="true (1)"
compound=CN(CC(=O)O)c1ncc2c(n1)-c1ccccc1OC2 qualitativelabel="false (0)"
compound=CC1=NC(=Cc2ccc(Cl)cc2)C(=O)N1n1c(-c2ccccc2)nc2ccccc2c1=O qualitativelabel="true (1)"
compound=Cc1ccc(O)c2c(NCCCCCCNc3cc(C)[n+](C)c4c(C)ccc(O)c34)cc(C)[n+](C)c12 qualitativelabel="true (1)"
compound=CCCCNCCCCCCCCCCCl qualitativelabel="true (1)"
compound=CCCN(CCC)C(=S)N/N=C(/C)c1ccccc1O qualitativelabel="true (1)"
compound=N#Cc1snc2sc(=O)sc12 qualitativelabel="true (1)"
compound=CCC[CH2][Sn]1([CH2]CCC)[O]C(=O)CN=Cc2c(ccc3ccccc23)[O]1 qualitativelabel="true (1)"
compound=Brc1cc2ccccc2c2ccccc12 qualitativelabel="false (0)"
compound=[N-]=[N+]=Nc1c(Cc2ccccc2)c(=O)oc2ccccc12 qualitativelabel="true (1)"
compound=CS/C(N)=N/NC(=O)CCC(=O)Nc1cc(Cl)c(Cl)cc1Cl qualitativelabel="false (0)"

The reported numbers originate from PubChem BioAssay (NCI).
